- Tested System: HLA-A*0201 (Homo sapiens, UniProt P04439, D140Y/D185E/D98H/E176V/E277Q/G131W/G231S/I119V/I121R/I166T/I218V/L300P/L318F/N151K/N90K/P208A/P217A/Q86G/Q94H/R138H/R169H/T345S)
- Test Name: UV-ligand exchange with ELISA of stabilized MHC complexes
- Type: binding
- Measurement Setup: class symbol
Measurement Kind: Exchange yield

Guide cases for Exchange yield, answers given:
Construct Sequence	Exchange yield
GLIEIISNA (listed as Homo sapiens) [SEQ ID NO 48]	+++ (50%-70%, +++)
AVVEFLTSV (listed as Homo sapiens) [SEQ ID NO 19]	+++ (50%-70%, +++)
VLAPLFVYL (listed as Homo sapiens) [SEQ ID NO 37]	+++ (50%-70%, +++)
SLWGGDVVL (listed as Homo sapiens) [SEQ ID NO 42]	+++ (50%-70%, +++)
SLLAQNTSWLL (listed as Homo sapiens) [SEQ ID NO 74]	+++ (50%-70%, +++)

Query: Record request: Exchange yield value, item KLLTEVHAA (listed as Homo sapiens) [SEQ ID NO 72]
Reply: +++ (50%-70%, +++)

Query: State the recorded Exchange yield for this entry: ALDENLHQL (listed as Homo sapiens) [SEQ ID NO 3]
Reply: ++ (20%-49% = ++)

Query: GET /values?readout=Exchange yield&item= KILEDVVGV (listed as Homo sapiens) [SEQ ID NO 70]
Reply: +++ (50%-70%, +++)

Query: # Exchange yield lookup, item VVDKTLLLV (listed as Homo sapiens) [SEQ ID NO 60]
Reply: ++ (20%-49% = ++)

* * *

- Tested System: HLA-A*0201 (Homo sapiens, UniProt P04439, D140Y/D185E/D98H/E176V/E277Q/G131W/G231S/I119V/I121R/I166T/I218V/L300P/L318F/N151K/N90K/P208A/P217A/Q86G/Q94H/R138H/R169H/T345S)
- Test Name: UV-ligand exchange with ELISA of stabilized MHC complexes
- Format: binding
- Measurement Setup: class symbol

Construct Sequence	Exchange yield
ALMDKEGLTAL (listed as Homo sapiens) [SEQ ID NO 9]	++++ (>70 = ++++)
RLLDSVSRL (listed as Homo sapiens) [SEQ ID NO 39]	+++ (50%-70%, +++)
SLFGNSGILENV (listed as Homo sapiens) [SEQ ID NO 80]	+++ (50%-70%, +++)
VLSVVEVTL (listed as Homo sapiens) [SEQ ID NO 10]	++++ (>70 = ++++)

* * *

- Test system: CD8+ T cells
- Test Name: In vitro T-cell priming assay (aAPCs loaded with peptide/MHC and anti-CD28, pMHC multimer readout)
- Assay type: cell-based, human
- Measurement Setup: in vitro immunogenicity, responding healthy donors; trifluoro-acetate salts of the peptides
Measurement Kind: Donors

Here is how some substances turned out for Donors.
Substance	Assay Value
88 (SLLESNKDLLL; listed as Homo sapiens) [compound 88]	++ (20%-49% = ++)
54 (KLVEFDFLGA; listed as Homo sapiens) [compound 54]	++ (20%-49% = ++)
57 (GLAEDIDKGEV; listed as Homo sapiens) [compound 57]	++ (20%-49% = ++)
47 (GVLENIFGV; listed as Homo sapiens) [compound 47]	++ (20%-49% = ++)

Query: Look at this substance and give its reported Donors. 8 (SMSGYDQVL; listed as Homo sapiens) [compound 8]
Reply: ++ (20%-49% = ++)

Query: # input substance: 67 (ILQDRLNQV; listed as Homo sapiens) [compound 67] ; wanted: its Donors
Reply: ++ (20%-49% = ++)

Query: Given 60 (VVDKTLLLV; listed as Homo sapiens) [compound 60] , state its recorded Donors.
Reply: ++++ (>70 = ++++)

Query: Would you mind telling me what Donors value was observed for 21 (AILDTLYEV; listed as Homo sapiens) [compound 21] ?
Reply: ++ (20%-49% = ++)

Query: Requested read-out: Donors. Entry: 33 (ALLRTVVSV; listed as Homo sapiens) [compound 33]
Reply: +++ (50%-70%, +++)

Query: // returns reported Donors for input 39 (RLLDSVSRL; listed as Homo sapiens) [compound 39]
Reply: ++ (20%-49% = ++)
